Test: Plasma pharmacokinetics of regorafenib, M-2 and M-5
Type: in vivo, human
Settings: human, plasma, oral
METRIC: Tmax (h)
Give the number; h is assumed, so skip it.

Challenge: I have this compound here, CNC(=O)c1cc(Oc2ccc(NC(=O)Nc3ccc(Cl)c(C(F)(F)F)c3)c(F)c2)ccn1 [Regorafenib, reference compound] , and I need its recorded Tmax.
Response given: 4

* * *

Assay: Plasma pharmacokinetics of regorafenib, M-2 and M-5
Type: in vivo, human
Settings: human, plasma, oral, 60 mg/day
METRIC: Tmax (h)
Give the number; h is assumed, so skip it.

Challenge: I have this compound here, CNC(=O)c1cc(Oc2ccc(NC(=O)Nc3ccc(Cl)c(C(F)(F)F)c3)c(F)c2)ccn1 [Regorafenib, reference compound] , and I need its recorded Tmax.
Response given: 4
